Each entry below lists one item and its recorded Ki value.
# MEASURED_TARGET: T1, TAV 2b (Tomato aspermy virus, UniProt Q8UYT3 1-95)
# T1 sequence: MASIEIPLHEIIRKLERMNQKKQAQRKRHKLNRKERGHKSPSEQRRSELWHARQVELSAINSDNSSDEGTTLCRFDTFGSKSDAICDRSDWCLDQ
# TEST_METHOD_NOTES: competition; Kc vs labeled gf698
# CONDITION_NOTES: protein: recombinant; tags: His-SUMO removed; chain copies: 2; label: 5'-32P; 3' overhangs 2 nt, mismatches

INSERT INTO measurements (binder, measured_parameter, test_result) VALUES
  ('AtmiR168a variant 3 (dsRNA, 5''-phosphate) RNA 1: UCGCUUGGUGCAGGUCGGGAA RNA 2: CCCGCCCUGCACCAACUGAAU', 'Ki', '2.2 nM');

Could you now look at the following binder, please?
// query What value of Ki has been recorded for this entry: AtmiR162 (dsRNA, 5'-phosphate) RNA 1: UCGAUAAACCUCUGCAUCCAG RNA 2: GGAGGCAGCGGUUCAUCGAUC
// result 0.67 nM
